Test system: Staphylococcus aureus
Experimental details: Antibacterial activity against Staphylococcus aureus measured after 24 hrs
Format: functional
Measured parameter: MIC
Don't forget the unit after the number, please.

See these solved cases before continuing.
Compound	Assay system	MIC
COc1c(C(C)C)ccc2c1CC[C@H]1C(=O)CCC[C@]21C	Staphylococcus aureus	75 µg/mL
COc1c(C(C)C)ccc2c1CC=C1C3=C(CCC12C)C(=O)OC3 (single isomer, unassigned)	Staphylococcus aureus	75 µg/mL

Continue with the next compound.
Would you mind telling me what MIC value was observed for `C=C1C(CO)=CC[C@]2(C)c3ccc(C(C)C)c(OC)c3CC[C@@H]12` ? 75 µg/mL

---

Tested on: Staphylococcus aureus
Experimental details: Antibacterial activity against Staphylococcus aureus measured after 24 hrs
Format: functional
Attribute: MIC
Form entry: value (µg/mL) — number only.

Smiles notation	Measured parameter	Observed value
COc1cccc2c1CC[C@H]1[C@H]3COC(=O)C3=CC[C@]21C	MIC	6.3
COC(=O)[C@]1(C)CCC[C@]2(C)c3ccc(C(C)C)c(NC(=O)Cn4cc(-c5ccc(-c6ccccc6)cc5)nn4)c3CC[C@@H]12	MIC	50
C=C1[C@H](O[Si](C)(C)C(C)(C)C)CC[C@]2(C)c3ccccc3CC[C@@H]12	MIC	100

Would you mind telling me what MIC value was observed for `C[C@]12CCC3=C(COC3=O)[C@@H]1CCc1ccccc12` ? 100

Same question, `COc1c(C(C)C)ccc2c1CC[C@H]1[C@@H](CO)[C@H](O)CC[C@]21C` this time 75

Same question, `CC(C)(C)[Si](C)(C)O[C@@H]1CC[C@]2(C)c3ccccc3CC[C@H]2[C@H]1CO` this time 100

Same question, `COC(=O)[C@]1(C)CCC[C@]2(C)c3ccc(C(C)C)c(NC(=O)Cn4cc(-c5cncnc5)nn4)c3CC[C@@H]12` this time 1.6

Same question, `COC(=O)[C@]1(C)CCC[C@]2(C)c3ccc(C(C)C)c(OC)c3C(=O)C[C@@H]12` this time 50
